- condition.label: buffer; pH 7.4; 200.0 µM
Would you please tag the item MET when its solubility kinetic is 20 µg/mL or above, and NOT MET when it is below?

                                   compound  label_value
0  CCOc1ccc(CCNC(=O)COC(=O)c2ccc(C)s2)cc1OCC          MET

input: hey, is solubility kinetic for this one >= 20 µg/mL? COCCn1c(SCC(=O)NC(=O)NC2CCCCC2)nc2ccccc2c1=O
output: NOT MET

input: hey, is solubility kinetic for this one >= 20 µg/mL? O=C(c1cc(Cl)ccc1O)N1CCN(S(=O)(=O)Cc2ccccc2)CC1
output: MET

input: hey, is solubility kinetic for this one >= 20 µg/mL? O=C(Cn1cccc(C(F)(F)F)c1=O)c1ccc(Cl)cc1
output: MET

input: hey, is solubility kinetic for this one >= 20 µg/mL? Cc1cc(Br)ccc1N=C1C(=O)Nc2ccccc21
output: NOT MET

input: hey, is solubility kinetic for this one >= 20 µg/mL? COc1ccc(C(=O)CC(=O)C(=O)Nc2ccccc2)cc1
output: MET

input: hey, is solubility kinetic for this one >= 20 µg/mL? O=C(NCc1ccccc1Cl)c1ccncc1
output: MET

input: hey, is solubility kinetic for this one >= 20 µg/mL? O=C(Nc1cccc(Cl)c1)Nc1cccc(C(=O)O)c1
output: MET

input: hey, is solubility kinetic for this one >= 20 µg/mL? CCOc1ccc(C(=O)OC(C)C(=O)N2CCN(Cc3ccccc3)CC2)cc1 (centres undefined)
output: MET
